test system: SKOV3; experiment: Primary qHTS to identify gynecologic anti-cancer compounds using libraries of approved drugs and bioactive compounds (AID 1345084); conditions: Gynecologic cancer cell panel viability, ATPlite luminescence, 48 h; series mostly up to 57.5 µM; note: nearly all actives have a fitted effect of over 55% in size
Results filed as inconclusive are left out. Calls of active or inactive are those of the source. Calls come from the whole dose curve; as a rule, active = well fitted cell-killing curve with a large enough effect; inconclusive = small, poorly fitted or top-dose-only effect, or effect the other way; inactive = flat fitted curve, though single readings scatter.
Bench note: report the call from active, inactive

Here's what some known entries look like.
| molecule | label |
| --- | --- |
| c1cncc(CN2CCC(n3ncc4c(N5CCOCC5)nc(-c5ccc6[nH]ccc6c5)nc43)CC2)c1 | active |
| Cc1ccccc1C(=O)Nc1ccc(C(=O)N2CCCC(O)c3cc(Cl)ccc32)c(C)c1 (stereo unspecified) | inactive |
| CC1=C(C(=O)Nc2cc3cn[nH]c3cc2F)C(c2ccc(Cl)cc2F)N=C(c2ccnc(Cl)c2)N1 (stereo unspecified) | inactive |
| c1ccc2c(Oc3nc(Nc4ccc(N5CCOCC5)cc4)c4ncn(C5CCCCC5)c4n3)cccc2c1 | inactive |
| CCOC(=O)[C@@H](N)Cc1ccc(-c2cc(O[C@H](c3ccc(Cl)cc3-n3ccc(C)n3)C(F)(F)F)nc(N)n2)cc1 | inactive |

Enquiry: State the result this test recorded for C=CC(=O)Nc1ccc2ncnc(Nc3ccc(OCc4cccc(F)c4)c(Cl)c3)c2c1 .
Return: inactive

====

Experiment: Quantitative High-Throughput drug screen in 47 multiple myeloma cell lines against the NCATS MIPE library collection: MM1R_ATCC cell viability assay (AID 1918981); note: nearly all actives have a fitted effect of over 35% in size
Conditions: MM1R multiple myeloma cells, CellTiter-Glo viability, 48 h; series mostly up to 45.8 µM
Excerpt: PI: Beverly A. Mock Ph.D. Laboratory of Cancer Biology and Genetics, Center for Cancer Research, National Cancer Institute, National Institute of Health, Bethesda, Maryland […] 5; Detector; 425V; Luminescence; Viewlux PerkinElmer. […] 1. […] Briefly, the corresponding myeloma cell lines were screened in 1,536-well plates with 500 cells, 5-uL per well for inhibition of cell viability (assessed by measuring ATP levels with CellTiterGlo). […]
Results filed as inconclusive are left out. Activity calls are given as the source filed them. Calls come from the whole dose curve; as a rule, active = well fitted cell-killing curve with a large enough effect; inconclusive = small, poorly fitted or top-dose-only effect, or effect the other way; inactive = no such curve, though single readings can be large or run the other way.
Bench note: report the call from label 1 (active), label 0 (inactive)

| compound | label |
| --- | --- |
| Cn1cnc(=N)c2[nH]cnc21 | label 1 |
| Nc1ccc(C(=O)Nc2cccc(-c3nc(N4CCOCC4)c4oc5ncccc5c4n3)c2)cn1 | label 1 |
| C#C[C@]1(O)CC[C@@H]2[C@@H]3CCc4cc(O)ccc4[C@H]3CC[C@@]21C | label 1 |
| O=C(CCCCCCC(=O)Nc1cccnc1)NO | label 1 |
| CC(=O)O[C@@]12CO[C@H]1C[C@H](O)[C@@]1(C)C(=O)[C@H](O)C3=C(C)[C@@H](OC(=O)C(O)[C@@H](NC(=O)OC(C)(C)C)c4ccccc4)C[C@@](O)([C@@H](OC(=O)c4ccccc4)[C@@H]21)C3(C)C (stereo partly drawn) | label 0 |
| CCCNC(=O)[C@H]1O[C@H]1C(=O)N[C@H](C(=O)N1CCC[C@@H]1C(=O)OC)C(C)CC (stereo partly drawn) | label 1 |
| CC(=O)NCC(=O)N1[C@H]2CC[C@H]1c1cc(Nc3ncc(C(F)(F)F)c(NC4CCC4)n3)ccc12 | label 1 |
| OC[C@@H](O)[C@@H](O)[C@H](O)[C@@H](O)CO | label 0 |

Enquiry: State the result this test recorded for CC(C)C[C@H](NC(=O)CNC(=O)c1cc(Cl)ccc1Cl)B1OC(=O)CC(CC(=O)O)(C(=O)O)O1 (stereo partly drawn) .
Return: label 1

Enquiry: State the result this test recorded for Cn1cc(-c2cnn3c(N)c(Br)c([C@H]4CCCNC4)nc23)cn1 .
Return: label 1

Enquiry: State the result this test recorded for C[C@H](NCc1ccc(OCc2cccc(F)c2)cc1)C(N)=O .
Return: label 1

Enquiry: State the result this test recorded for CC(=O)OCC(=O)[C@@]1(O)CC[C@H]2[C@@H]3CCC4=CC(=O)CC[C@]4(C)[C@@H]3C(=O)C[C@@]21C .
Return: label 0

Enquiry: State the result this test recorded for COc1cc(C[C@@H](CO)[C@H](CO)Cc2ccc(O)c(OC)c2)ccc1O .
Return: label 1

Enquiry: State the result this test recorded for COC(=O)[C@H](CCCN=C(N)N)NS(=O)(=O)c1ccc(C)cc1 .
Return: label 0

Enquiry: State the result this test recorded for CN1C(C(=O)Nc2ccccn2)=C(O)c2sc(Cl)cc2S1(=O)=O .
Return: label 1

Enquiry: State the result this test recorded for CN[C@H]1[C@@H](O)[C@@H]2O[C@@H]3O[C@H](C)CC(=O)[C@]3(O)O[C@@H]2[C@@H](NC)[C@H]1O .
Return: label 1

Enquiry: State the result this test recorded for C[C@H](NC(=O)Cc1cc(F)cc(F)c1)C(=O)N[C@H](C(=O)OC(C)(C)C)c1ccccc1 .
Return: label 0

Enquiry: State the result this test recorded for O=C(Nc1ccc(Oc2ccnc3[nH]ccc23)c(F)c1)c1cccn(-c2ccc(F)cc2)c1=O .
Return: label 1
